Each record here notes measured Neu.
- Species on record: Rattus norvegicus
- protocol.description: Open TG-GATES - Regimen: Daily Repeat
- Assay type: toxicity, organism-based, Sprague-Dawley
- Design: regimen Daily Repeat, gender Male, age 6 weeks
- setup.conditions: in vivo, po, 1000 mg/kg, […], tissue Blood, route gavage, dose level High, time 14 day

molecule: COc1ccc2[nH]c([S+]([O-])Cc3ncc(C)c(OC)c3C)nc2c1 (stereo not given)
Neu: 13%
//
molecule: COC1=CC(=O)C[C@@H](C)[C@]12Oc1c(Cl)c(OC)cc(OC)c1C2=O
Neu: 15.2%
//
molecule: CCOC(=O)CCC(=O)O[C@H]1[C@H](O[C@@H]2[C@@H](C)[C@H](O[C@H]3C[C@@](C)(OC)[C@@H](O)[C@H](C)O3)[C@@H](C)C(=O)O[C@H](CC)[C@@](C)(O)[C@H](O)[C@@H](C)C(=O)[C@H](C)C[C@@]2(C)O)O[C@H](C)C[C@@H]1N(C)C [ERYTHROMYCIN ETHYLSUCCINATE]
Neu: 11.4%
//
molecule: NC(N)=Nc1nc(CSCCC(N)=NS(N)(=O)=O)cs1
Neu: 18.6%
//
molecule: CCOc1ccc(NC(=O)CC(C)O)cc1 (stereo not given)
Neu: 26.2%

---

- Species: Rattus norvegicus
- protocol.description: Open TG-GATES - Regimen: Single
- Format: toxicity, organism-based, Sprague-Dawley
- Parameters: regimen Single, gender Male, age 6 weeks
- setup.conditions: in vivo, po, 30 mg/kg, 3 h, tissue Plasma, route gavage, dose level Middle
Each record here notes measured CRE.
measure.name: CRE

molecule: CN(C)CCCN1c2ccccc2CCc2ccc(Cl)cc21 [CLOMIPRAMINE]
recorded.value: 0.2 mg/dL
//
molecule: CN(C)CCN(Cc1cccs1)c1ccccn1
recorded.value: 0.2 mg/dL
//
molecule: CN(C)CCCN1c2ccccc2CCc2ccccc21 [IMIPRAMINE]
recorded.value: 0.1 mg/dL
//
molecule: CC1=C(/C=C/C(C)=C/C=C/C(C)=C/CO)C(C)(C)CCC1 [RETINOL]
recorded.value: 0.1 mg/dL

---

- Organism: Rattus norvegicus
- protocol.description: Open TG-GATES - Regimen: Single
- Format: toxicity, organism-based, Sprague-Dawley
- Design: regimen Single, gender Male, age 6 weeks
- setup.conditions: in vivo, po, 100 mg/kg, 6 h, tissue Plasma, route gavage, dose level High
Each record here notes measured TC.

substance.smiles: CC1=C(/C=C/C(C)=C/C=C/C(C)=C/CO)C(C)(C)CCC1
TC (mg/dL): 71.8
--
substance.smiles: CN(C)CCCN1c2ccccc2CCc2ccccc21
TC (mg/dL): 83.8
--
substance.smiles: CN(C)CCCN1c2ccccc2CCc2ccc(Cl)cc21
TC (mg/dL): 71.4
--
substance.smiles: CN(C)CCN(Cc1cccs1)c1ccccn1
TC (mg/dL): 64.8

---

- Species: Rattus norvegicus
- protocol.description: Open TG-GATES - Regimen: Daily Repeat
- Format: toxicity, organism-based, Sprague-Dawley
- Design: regimen Daily Repeat, gender Male, age 6 weeks
- setup.conditions: in vivo, po, 1000 mg/kg, […], tissue Plasma, route gavage, dose level High, time 28 day

molecule: CCOC(=O)CCC(=O)O[C@H]1[C@H](O[C@@H]2[C@@H](C)[C@H](O[C@H]3C[C@@](C)(OC)[C@@H](O)[C@H](C)O3)[C@@H](C)C(=O)O[C@H](CC)[C@@](C)(O)[C@H](O)[C@@H](C)C(=O)[C@H](C)C[C@@]2(C)O)O[C@H](C)C[C@@H]1N(C)C [ERYTHROMYCIN ETHYLSUCCINATE]
u: mg/dL
Ca: 10.4
//
molecule: COc1ccc2[nH]c([S+]([O-])Cc3ncc(C)c(OC)c3C)nc2c1 (stereo not given) [OMEPRAZOLE]
u: mg/dL
Ca: 10.7
//
molecule: COC1=CC(=O)C[C@@H](C)[C@]12Oc1c(Cl)c(OC)cc(OC)c1C2=O [GRISEOFULVIN]
u: mg/dL
Ca: 10.5
//
molecule: CCOc1ccc(NC(=O)CC(C)O)cc1 (stereo not given) [BUCETIN]
u: mg/dL
Ca: 11
//
molecule: NC(N)=Nc1nc(CSCCC(N)=NS(N)(=O)=O)cs1 [FAMOTIDINE]
u: mg/dL
Ca: 10.3

---

- Organism: Rattus norvegicus
- protocol.description: Open TG-GATES - Regimen: Single
- Format: toxicity, organism-based, Sprague-Dawley
- Design: regimen Single, gender Male, age 6 weeks
- setup.conditions: in vivo, po, 1000 mg/kg, 3 h, tissue Blood, route gavage, dose level High
measure.name: Lym (%)

compound: COc1ccc2[nH]c([S+]([O-])Cc3ncc(C)c(OC)c3C)nc2c1 (centres undefined) [OMEPRAZOLE]
recorded.value: 74.8

compound: NC(N)=Nc1nc(CSCCC(N)=NS(N)(=O)=O)cs1 [FAMOTIDINE]
recorded.value: 80.8

compound: CCOC(=O)CCC(=O)O[C@H]1[C@H](O[C@@H]2[C@@H](C)[C@H](O[C@H]3C[C@@](C)(OC)[C@@H](O)[C@H](C)O3)[C@@H](C)C(=O)O[C@H](CC)[C@@](C)(O)[C@H](O)[C@@H](C)C(=O)[C@H](C)C[C@@]2(C)O)O[C@H](C)C[C@@H]1N(C)C [ERYTHROMYCIN ETHYLSUCCINATE]
recorded.value: 74.6

compound: COC1=CC(=O)C[C@@H](C)[C@]12Oc1c(Cl)c(OC)cc(OC)c1C2=O [GRISEOFULVIN]
recorded.value: 78.4

---

Each record here notes measured LDH.
- Species on record: Rattus norvegicus
- protocol.description: Open TG-GATES - Regimen: Daily Repeat
- Type: toxicity, organism-based, Sprague-Dawley
- Parameters: regimen Daily Repeat, gender Male, age 6 weeks
- setup.conditions: in vivo, po, 1000 mg/kg, […], tissue Plasma, route gavage, dose level High, time 14 day

compound: CC(C)OC(=O)C(C)(C)Oc1ccc(C(=O)c2ccc(Cl)cc2)cc1 [FENOFIBRATE]
LDH, IU/L: 226.2
--
compound: COc1ccc2[nH]c([S+]([O-])Cc3ncc(C)c(OC)c3C)nc2c1 (stereo unspecified) [OMEPRAZOLE]
LDH, IU/L: 195.8
--
compound: NC(N)=Nc1nc(CSCCC(N)=NS(N)(=O)=O)cs1 [FAMOTIDINE]
LDH, IU/L: 162
--
compound: CCOc1ccc(NC(=O)CC(C)O)cc1 (stereo unspecified) [BUCETIN]
LDH, IU/L: 97.8
--
compound: COC1=CC(=O)C[C@@H](C)[C@]12Oc1c(Cl)c(OC)cc(OC)c1C2=O [GRISEOFULVIN]
LDH, IU/L: 135.6
--
compound: CCOC(=O)CCC(=O)O[C@H]1[C@H](O[C@@H]2[C@@H](C)[C@H](O[C@H]3C[C@@](C)(OC)[C@@H](O)[C@H](C)O3)[C@@H](C)C(=O)O[C@H](CC)[C@@](C)(O)[C@H](O)[C@@H](C)C(=O)[C@H](C)C[C@@]2(C)O)O[C@H](C)C[C@@H]1N(C)C [ERYTHROMYCIN ETHYLSUCCINATE]
LDH, IU/L: 161

---

- Species: Rattus norvegicus
- protocol.description: Open TG-GATES - Regimen: Daily Repeat
- Assay type: toxicity, organism-based, Sprague-Dawley
- Parameters: regimen Daily Repeat, gender Male, age 6 weeks
- setup.conditions: in vivo, po, 0 mg/kg, 72 h, tissue Plasma, route gavage, dose level Control, time 3 day

molecule: CCCNC(=O)NS(=O)(=O)c1ccc(Cl)cc1 [CHLORPROPAMIDE]
u: meq/L
K: 4
//
molecule: CN(C)CCCN1c2ccccc2CCc2ccccc21
u: meq/L
K: 4.2
//
molecule: CCOc1ccc(NC(=O)CC(C)O)cc1 (stereo unspecified)
u: meq/L
K: 4.1
//
molecule: O=C(CCCN1CCC(O)(c2ccc(Cl)cc2)CC1)c1ccc(F)cc1
u: meq/L
K: 4.9
//
molecule: CN(C)CCN(Cc1cccs1)c1ccccn1
u: meq/L
K: 4.4
//
molecule: CN1C(=O)CN=C(c2ccccc2)c2cc(Cl)ccc21
u: meq/L
K: 5

---

- Organism: Rattus norvegicus
- protocol.description: Open TG-GATES - Regimen: Single
- Type: toxicity, organism-based, Sprague-Dawley
- Design: regimen Single, gender Male, age 6 weeks
- setup.conditions: in vivo, po, 0 mg/kg, 3 h, tissue Kidney, route gavage, dose level Control

compound: CCCNC(=O)NS(=O)(=O)c1ccc(Cl)cc1 [CHLORPROPAMIDE]
u: g
KIDNEY_TOTAL: 1.8
//
compound: COC1=CC(=O)C[C@@H](C)[C@]12Oc1c(Cl)c(OC)cc(OC)c1C2=O
u: g
KIDNEY_TOTAL: 1.9
//
compound: C[C@@H]1C[C@H]2[C@@H]3CCC4=CC(=O)C=C[C@]4(C)[C@@]3(F)[C@@H](O)C[C@]2(C)[C@@]1(O)C(=O)CO
u: g
KIDNEY_TOTAL: 0.6
//
compound: CC1=C(/C=C/C(C)=C/C=C/C(C)=C/CO)C(C)(C)CCC1
u: g
KIDNEY_TOTAL: 1.8
//
compound: CC(C)OC(=O)C(C)(C)Oc1ccc(C(=O)c2ccc(Cl)cc2)cc1 [FENOFIBRATE]
u: g
KIDNEY_TOTAL: 1.5
//
compound: NC(N)=Nc1nc(CSCCC(N)=NS(N)(=O)=O)cs1
u: g
KIDNEY_TOTAL: 1.9
//
compound: CN1C(=O)CN=C(c2ccccc2)c2cc(Cl)ccc21
u: g
KIDNEY_TOTAL: 2
//
compound: CC/C(=C(\c1ccccc1)c1ccc(OCCN(C)C)cc1)c1ccccc1
u: g
KIDNEY_TOTAL: 1.7
//
compound: O=C(CCCN1CCC(O)(c2ccc(Cl)cc2)CC1)c1ccc(F)cc1
u: g
KIDNEY_TOTAL: 2
//
compound: CCOC(=O)CCC(=O)O[C@H]1[C@H](O[C@@H]2[C@@H](C)[C@H](O[C@H]3C[C@@](C)(OC)[C@@H](O)[C@H](C)O3)[C@@H](C)C(=O)O[C@H](CC)[C@@](C)(O)[C@H](O)[C@@H](C)C(=O)[C@H](C)C[C@@]2(C)O)O[C@H](C)C[C@@H]1N(C)C [ERYTHROMYCIN ETHYLSUCCINATE]
u: g
KIDNEY_TOTAL: 1.8
//
compound: Cc1ccc(C)c(OCCCC(C)(C)C(=O)O)c1
u: g
KIDNEY_TOTAL: 1.9
//
compound: NNC(=O)c1ccncc1
u: g
KIDNEY_TOTAL: 1.9
//
compound: CN(C)CCCN1c2ccccc2CCc2ccccc21
u: g
KIDNEY_TOTAL: 1.7
//
compound: CN(C)CCCN1c2ccccc2CCc2ccc(Cl)cc21
u: g
KIDNEY_TOTAL: 1.9
//
compound: COc1ccc2[nH]c([S+]([O-])Cc3ncc(C)c(OC)c3C)nc2c1 (stereo not drawn)
u: g
KIDNEY_TOTAL: 1.9
//
compound: CCOc1ccc(NC(=O)CC(C)O)cc1 (stereo not drawn)
u: g
KIDNEY_TOTAL: 1.8
//
compound: CN(C)CCN(Cc1cccs1)c1ccccn1
u: g
KIDNEY_TOTAL: 1.7
//
compound: COc1cc2c(c(OC)c1OC)-c1ccc(OC)c(=O)cc1[C@@H](NC(C)=O)CC2
u: g
KIDNEY_TOTAL: 2
